# Protocol Description: Microsomal stability assay, human liver microsomes
# Run Parameters: both, human, pooled liver microsomes, pH 7.4, Microsomal stability assays: Clearance
I'd appreciate it if you could supply CLint scaled at 0.08 µM values for the items below.
Numbers only, in mL/min/kg.

Report CLint scaled at 0.08 µM for each item below.
1. CC(Cc1ccc(NC=O)cc1)NCCCc1ccc(F)cc1 (stereo not drawn)
2. CC(Cc1ccc(F)cc1)NCCCc1ccc(NC=O)cc1 (stereo not drawn)
3. CC(Cc1ccc(F)cc1)NCCCc1ccc(N)cc1 (stereo not drawn)
4. CC(Cc1ccncc1)NCCCc1ccc(Br)cc1 (stereo not drawn)

A:
1: 13.4; 2: 23; 3: 12.9; 4: 6

Report CLint scaled at 0.08 µM for each item below.
1. CC(Cc1ccc(F)cc1)NCCCc1ccc(-c2ccnn2C)cc1 (stereo not drawn)
2. CC(Cc1ccc(F)cc1)NCCCc1c[nH]c2ccccc12 (stereo not drawn)
3. FCC(Cc1ccc(F)cc1)NCCCc1ccc(Cl)cc1 (stereo not drawn)
4. CC(Cc1ccc(F)cc1)NCCCc1ccccc1 (stereo not drawn)
5. CC(Cc1ccccc1)NCCCc1ccncc1 (stereo not drawn)
6. Nc1ccc(CCCNC(CF)Cc2ccc(F)cc2)cc1 (stereo not drawn)

A:
1: 34.3; 2: 112; 3: 22.6; 4: 11.5; 5: 5.8; 6: 9.6

Report CLint scaled at 0.08 µM for each item below.
1. CC(Cc1ccccc1)NCCCc1ccc(Br)cc1 (stereo not drawn)
2. CC(Cc1ccc(F)cc1)NCCCc1ccnc2ccccc12 (stereo not drawn)
3. CC(Cc1ccc(F)cc1)NCCCc1ccc(Cl)cc1 (stereo not drawn)
4. CC(Cc1ccc(Cl)cc1)NCCCc1ccc(N)cc1 (stereo not drawn)
5. CC(Cc1ccc(-c2cncnc2)cc1)NCCCc1ccc(F)cc1 (stereo not drawn)

A:
1. 9.5
2. 102
3. 4.7
4. 11.6
5. 40.4

====

# Protocol Description: Microsomal stability assay, human liver microsomes
# Run Parameters: both, human, pooled liver microsomes, pH 7.4, Microsomal stability assays: Clearance
Measured Quantity: CLint scaled at 0.08 µM (mL/min/kg)
One number for each entry, in mL/min/kg.

Example molecules with recorded CLint scaled at 0.08 µM:
CC(Cc1ccc(F)c(F)c1)NCCCc1ccncc1 (centres unmarked)    11.9
CC(Cc1ccc(NC=O)cc1)NCCCc1ccccc1 (centres unmarked)    11.2
CC(Cc1ccc(-c2cncnc2)cc1)NCCCc1ccc(Cl)cc1 (centres unmarked)    75.2
FCC(Cc1ccc(F)cc1)NCCCc1ccc(F)cc1 (centres unmarked)    20.5

Q: I am curious: what CLint scaled at 0.08 µM value has been reported for CC(Cc1ccc([N+](=O)[O-])cc1)NCCCc1ccncc1 (centres unmarked) ?
A: 6.3

====

I'd appreciate it if you could supply CLint scaled at 0.08 µM values for the items below.
# Protocol Description: in vitro
# Run Parameters: both, human, microsomes, pH 7.4, Microsomal stability assays: Clearance
Answers are plain numbers, in mL/min/kg.

Example molecules with recorded CLint scaled at 0.08 µM:
O=CNc1ccc(CC(CF)NCCCc2ccc(F)cc2)cc1 (stereo not shown)    26.5
OCC(Cc1ccc(F)cc1)NCCCn1cccn1 (stereo not shown)    37.3
FCC(Cc1ccc(-c2cccnc2)cc1)NCCCc1ccc(F)cc1 (stereo not shown)    173
O=[N+]([O-])c1ccc(CCCNC(CF)Cc2ccc(F)cc2)cc1 (stereo not shown)    18.1
CC(Cc1ccc(NC=O)cc1)N(C=O)CCCc1ccccc1 (stereo not shown)    121

// switching to the query molecule
Q: I am curious: what CLint scaled at 0.08 µM value has been reported for Nc1ccc(CC(CF)NCCCc2ccc(F)cc2)cc1 (stereo not shown) ?
A: 29.5

Every entry's value here was drawn from patent US11999676B2.
